Source: ChEMBL document CHEMBL1146728

Test: Intrinsic clearance in rat liver microsomes was determined
Assay type: ADME, Microsome
Details: read-out: Clearance
attribute.measured: microsomal CLint (µL/min/mg)
One number for each entry, in µL/min/mg.

{"compound.structure": "CC[C@H](C)C(=O)O[C@H]1C[C@@H](C)C=C2C=C[C@H](C)[C@H](CC[C@@H]3C[C@H](CC(=O)NC)N(Cc4ccc5c(c4)OC(F)(F)O5)C(=O)O3)[C@H]21", "attribute.measured": "microsomal CLint", "value.unit": "µL/min/mg", "measured.result": 207}

As a next step, examine the compound that follows.
Reported microsomal CLint for CC[C@H](C)C(=O)O[C@H]1C[C@@H](C)C=C2C=C[C@H](C)[C@H](CC[C@@H]3C[C@H](CC(=O)NC)N(Cc4cccc(OC)c4)C(=O)O3)[C@H]21 was 123
